assay: Metabolic stability in dog liver microsomes assessed as compound remaining after 10 mins; assay type: ADME, Canis lupus familiaris; conditions: read-out: Stability
Measured Endpoint: remaining at 10 min (%)

- CC(C)(O)c1ccccc1-c1ccc2[nH]c(/C=C/c3ccc(C(F)(F)F)cc3)nc2c1: 36

###

tested on: Liver microsome; assay: Metabolic stability in rat liver microsomes assessed as compound remaining after 10 mins; format: ADME; details: microsomes, 10 min
Measured Endpoint: Stability

• NS(=O)(=O)c1ccccc1-c1ccc2[nH]c(CCc3ccc(C(F)(F)F)cc3)nc2c1 = Unstable
• NS(=O)(=O)c1ccccc1-c1ccc2[nH]c(/C=C/c3ccc(OC(F)(F)F)cc3)nc2c1 = Unstable
• CC(C)(O)c1ccccc1-c1ccc2[nH]c(C#Cc3ccccc3)nc2c1 = Stable
• CC(C)(O)c1ccccc1-c1ccc2[nH]c(/C=C/c3ccc(OC(F)(F)F)cc3)nc2c1 = Stable
• CC(C)(O)c1ccccc1-c1ccc2[nH]c(/C=C/c3ccc(Cl)cc3)nc2c1 = Stable
• CS(=O)(=O)Nc1ccccc1-c1ccc2[nH]c(/C=C/c3ccc(OC(F)(F)F)cc3)nc2c1 = Stable
• NS(=O)(=O)c1ccccc1-c1ccc2[nH]c(/C=C/c3cccc(OC(F)(F)F)c3)nc2c1 = Unstable
• CC(C)(O)c1ccccc1-c1ccc2[nH]c(C#Cc3ccc(C(F)(F)F)cc3)nc2c1 = Stable

###

assay: Cmax in dog at 10 mg/kg, po; assay type: ADME, organism-based, Canis lupus familiaris; design: dose 10 mg/kg, route oral; conditions: in vivo
Measured Endpoint: Cmax (ng/mL)

* CC(C)(O)c1ccccc1-c1ccc2[nH]c(/C=C/c3ccc(C(F)(F)F)cc3)nc2c1 | 1610

###

Parameter inhibition: see the listing below.
target: UniProt:Q8NER1; test: Antagonist activity at recombinant human TRPV1 expressed in HEK293 cells assessed as inhibition of capsaicin-induced Ca2+ influx at 1 uM preincubated for 5 mins followed by capsaicin challenge relative to control; type: cell-based
Sequence (Q8NER1 whole entry): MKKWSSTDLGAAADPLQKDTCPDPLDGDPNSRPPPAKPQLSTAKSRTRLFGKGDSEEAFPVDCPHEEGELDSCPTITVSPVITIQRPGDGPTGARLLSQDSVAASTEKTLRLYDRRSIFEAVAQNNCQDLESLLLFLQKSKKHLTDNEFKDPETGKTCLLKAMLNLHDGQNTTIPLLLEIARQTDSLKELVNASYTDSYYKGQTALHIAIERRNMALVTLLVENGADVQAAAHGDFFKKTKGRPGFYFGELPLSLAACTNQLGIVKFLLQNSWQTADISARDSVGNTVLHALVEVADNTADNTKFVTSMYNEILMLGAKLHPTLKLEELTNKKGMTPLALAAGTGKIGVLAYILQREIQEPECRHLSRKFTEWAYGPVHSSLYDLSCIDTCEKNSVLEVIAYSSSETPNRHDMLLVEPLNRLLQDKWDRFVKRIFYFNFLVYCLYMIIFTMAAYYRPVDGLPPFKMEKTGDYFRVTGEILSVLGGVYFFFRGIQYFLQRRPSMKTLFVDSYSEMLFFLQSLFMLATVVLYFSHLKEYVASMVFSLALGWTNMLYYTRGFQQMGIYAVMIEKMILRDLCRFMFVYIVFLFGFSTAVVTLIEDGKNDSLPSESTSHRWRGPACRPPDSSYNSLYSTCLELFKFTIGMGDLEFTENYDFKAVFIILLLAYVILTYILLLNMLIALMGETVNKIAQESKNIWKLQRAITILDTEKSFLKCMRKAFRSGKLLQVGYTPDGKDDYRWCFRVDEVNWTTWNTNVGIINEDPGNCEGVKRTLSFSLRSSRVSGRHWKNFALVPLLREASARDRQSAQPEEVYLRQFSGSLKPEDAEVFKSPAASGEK
Measured Endpoint: inhibition

- CC(C)(C)c1ccc(/C=C/c2nc3cc(-c4cccc(C(N)=O)c4)ccc3[nH]2)cc1: 12%
- CC(C)(C)c1ccc(/C=C/c2nc3cc(-c4ccc(C(N)=O)cc4)ccc3[nH]2)cc1: 10%
- CS(=O)(=O)Nc1ccccc1-c1ccc2[nH]c(/C=C/c3ccc(OCC(F)(F)C(F)(F)F)cc3)nc2c1: 63%
- CS(=O)(=O)Nc1ccccc1-c1ccc2[nH]c(/C=C/c3cccc(C(F)(F)F)c3)nc2c1: 48%
- CS(=O)(=O)Nc1ccccc1-c1ccc2[nH]c(/C=C/c3ccccc3C(F)(F)F)nc2c1: 44%
- CC(C)(C)c1ccc(CCCc2nc3cc(-c4ccccc4O)ccc3[nH]2)cc1: 6%
- CC(C)(C)c1ccc(Cc2nc3cc(-c4ccccc4O)ccc3[nH]2)cc1: 6%
- CC(=O)Nc1ccc(-c2ccc3[nH]c(/C=C/c4ccc(C(C)(C)C)cc4)nc3c2)cc1: 10%

###

assay: Metabolic stability in rat liver microsomes assessed as compound remaining after 10 mins; format: ADME; conditions: liver microsomes, read-out: Stability
Measured Endpoint: remaining at 10 min

* CC(C)(C)c1ccc(/C=C/c2nc3cc(-c4ccccc4NS(C)(=O)=O)ccc3[nH]2)cc1 | 29%
* CS(=O)(=O)Nc1ccccc1-c1ccc2[nH]c(/C=C/c3ccc(C(F)(F)F)cc3)nc2c1 | 50%
* CC(C)(O)c1ccccc1-c1ccc2[nH]c(CCc3ccc(C(F)(F)F)cc3)nc2c1 | 5%
* CC(=O)c1ccccc1-c1ccc2[nH]c(/C=C/c3ccc(C(C)(C)C)cc3)nc2c1 | 43%
* CC(O)c1ccccc1-c1ccc2[nH]c(/C=C/c3ccc(C(F)(F)F)cc3)nc2c1 (stereo unspecified) | 89%
* CC(C)(O)c1ccccc1-c1ccc2[nH]c(/C=C/c3ccc(C(F)(F)F)cc3)nc2c1 | 93%
